Test system: MS2 coat protein
test_description: apparent KD of MS2 coat protein; designed switch direction (-1 OFF switch, 1 ON switch): -1; higher = weaker reporter binding
experimental_setup: input ligand: none
measured_endpoint: apparent KD of MS2 coat protein (nM)
Use nM as the unit, but write only the number.

GET /value?item= ACCUCACAUGAGGAUCACCCAUGUCAGGAUAUAUUGUGCAAGCGCCGUGGCGUAUGUAGUAGAAGGGACGAAAC [Eternabot (L1) Solution 77] (Eterna round: R97, puzzle: Exclusion 1) &field=apparent KD of MS2 coat protein returns 17.8

Please fill in: apparent KD of MS2 coat protein reported for CCGGAUUAGUAGGAUAUAGGAGUCGAUAGACACCUAGAAGGACUAACAUGAGGAUCACCCAUGUGUCCUACCGG [Mod of Eli 19 - Jieux - Exclusion 6] (Eterna round: R97, puzzle: Exclusion 6) = 16.7

Sample GCUGGUCAAGGAUAUGCAUUCGUGCUUCGGCACGUAAGGUCACAUGAGGAUCACCCAUGUAGAAGGUGACCAGC [E2/6-C1] (Eterna round: R97, puzzle: Exclusion 2) ; apparent KD of MS2 coat protein observed: 20.9

Entry UAGAUACAUGAGGAUCACCCAUGUGAGGAUAUGAGAAUUAUAUUAAAUGAAUUAAUUUUCAGAAGGCACAAAGG [JR_Ex1_Sub052] (Eterna round: R97, puzzle: Exclusion 1) ; apparent KD of MS2 coat protein = 166

In plain terms, AUGUGCACGCUGCGGUCCUACAUGAGGAUCACCCAUGUGGUCUGGUGGCGUGGGUCGCCGGACUUGGCUCGUCUUGU [salish99_S_TOV1_R5_030] (Eterna round: R97, puzzle: Sensor, turn-off variant 1) has a documented apparent KD of MS2 coat protein of 18.7

The sequence identified as GGGCCUCAUGUGAGGAUAUUGGAUGAGGUGCGAGACGAGAAGGCACAUGAGGAUCACCCAUGUAACUAACCAAA [Bimaen] (Eterna round: R97, puzzle: Brourd's mod of Exclusion 4) registered its apparent KD of MS2 coat protein at 85

So, CCUGGGUCAUCGCCCAGGAACAACAUGAGGAUCACCCAUGUCUAGGAUAUCCACCAGUCAAUAAAGGAGAAGGAGACGGUGGUU [Enusonor] (Eterna round: R96, puzzle: Exclusion NG 3) ? Its apparent KD of MS2 coat protein was 21.2

Entry under test: UGUUGUUCAGGAUAUGAUGUAUAAUACAUGAGGAUCACCCAUGUAGAUCCUGAAUUAACAUCAGAAGGGAAUGUUG [salish99_ex5_r4_102] (Eterna round: R97, puzzle: Exclusion 5) . Its apparent KD of MS2 coat protein was 15.2

Measured apparent KD of MS2 coat protein of ACAAGCUUAAUCUGUAUGAACAUGAGGAUCACCCAUGUAUAAGGGAAUUCUUUUGGGUUUUUUAUUGCUCGUCUUAU [JR_STOV1_Sub021] (Eterna round: R97, puzzle: Sensor, turn-off variant 1) : 311

# apparent KD of MS2 coat protein of GCUCGAAGGAGUGGGAGCAACAUGAGGAUCACCCAUGUGCGGCUAUUUCAUGCUCGUCUUAAAGCUUUGCCCUAGCC [Eternabot (Original) Solution 40] (Eterna round: R97, puzzle: Sensor, turn-off variant 1) = 18.5

----------
Tested on: K4 kissing-loop RNA reporter;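 further: bound reporter read as fluorescence of individual clusters on recovered sequencing chips by microscopy, with normalized cluster intensities fitted with a binding model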
test_description: apparent KD of K4 kissing-loop reporter; higher = weaker reporter binding
experimental_setup: Eterna round: R107; input ligand: theophylline 20 uM
# apparent KD of K4 kissing-loop reporter >= 100 nM gives Criterion met, anything below gives Criterion not met

// query // inclusive: apparent KD of K4 kissing-loop reporter at least 100 nM? input: GCGCGUCAUGUCAGCGGUGCCUAUGUCGAUACCAGCGCCGCAAGGCGCCCUUGGCAGCGACGCGCUGGAGUGAUGUUCCAGCGUG [#2 Exclusion - Theophylline A Attempt #11 (HarryS)]
// result Criterion met

// query Can AAGCUACGCGCGGCCGCCACUGUUUAUGUAUAAAUGCGUCGCUCACUGCUUUAGUGAUGUUGAAGCAGGACCGGGCGAAUGGUAC [theeternabot_exclusion_KL_Trp_B_15] be said to have apparent KD of K4 kissing-loop reporter at or above 100 nM?
// result Criterion not met

// query Textbook exercise: given the entry CACCUAGGUACGGCCGCCACUAGAAGUGAUGUUUCGUCUGGUUCCGCAUUACGUGUACUUUCUUAUAGGACCGGGUAGCAAAUAG [theeternabot_exclusion_KL_Trp_B_3] , state whether its apparent KD of K4 kissing-loop reporter is greater than or equal to 100 nM.
// result Criterion met

// query # bool: apparent KD of K4 kissing-loop reporter of CCUUCCUAAAACGAUACCAGUUUCUAUCCUCAAUCCAGUGAUGUUGAAUUGAGCUCACAGAACCCUUGGCAGCGUCGCUAUACGG [theeternabot_sameState_KL_Theo_B_39] >= 100 nM
// result Criterion met

// query Please check the record `UGAUAGGACAGAAGGAGCGGUAGUGAUGUUGCCAAAAGGGUAAGGUGUCAAAAGACACCCUACCAGGUAGGUCGCUGUCCUAUCU` and state if its apparent KD of K4 kissing-loop reporter is at or above 100 nM.
// result Criterion not met

----------
System: MS2 coat protein
test_description: apparent KD of MS2 coat protein; designed switch direction (-1 OFF switch, 1 ON switch): -1; higher = weaker reporter binding
experimental_setup: Eterna round: R95; input ligand: FMN 200 uM
Classify as follows. Reported apparent KD of MS2 coat protein greater than or equal to 200 nM: true (1). Reported apparent KD of MS2 coat protein below: false (0).

// query # bool: apparent KD of MS2 coat protein of GGAAGACAUGAGGAUCACCCAUGUAAGGAUAUCGAAGGUAUGAGAGGAAAGAGGUUAACGAGAAGGUACAGGUG [JR_Exclu1_Sub099] (puzzle: Exclusion 1) >= 200 nM
// result false (0)

// query Is apparent KD of MS2 coat protein at least 200 nM? Consider AAUAAUACAGGAUAUACAGUUUAUUACAUGAGGAUCACCCAUGUUCUUCAAUGUAUAUAAGUAGAAGGGUAAGGAA [EX-5 Malc#1] (puzzle: Exclusion 5)
// result false (0)

// query Tell me whether apparent KD of MS2 coat protein is at least 200 nM here: CUGAGGUAGCGGUCCUAUGACAUGAGGAUCACCCAUGUACCUUGCUACGAGCUUUUUGCUCGUCUUAUAAUUCUCAG [Mat - Sensor v3 - turn-off var 1 - JL Mod - D31] (puzzle: Sensor v3, turn-off variant 1)
// result false (0)

// query Record AGAUGGCGAGGAUAUACAUGAGGAUCACCCAUGUGAAGAUAAAGAGUGAGGAAGAAAAGUAGAAGGCGCUGUCA [Mat - Exclusion 3 - Mod of Salish D28] (puzzle: Exclusion 3) ; criterion: apparent KD of MS2 coat protein no lower than 200 nM. Met?
// result true (1)

// query Threshold query (apparent KD of MS2 coat protein >= 200 nM) on AAGAAACAUGAGGAUCACCCAUGUGAGGAUAUGUAAAAUAAAAUAAAAGAAAUAAUAAACAGAAGGCACAAAGG [Mat - Mod of Hog D16] (puzzle: Exclusion 1)
// result false (0)

// query Evaluate GAAAAGGUAGGAUAUACGGAAAAAAAGGGUAGAAAAAAAACACAUGAGGAUCACCCAUGUAGAAGGACCAAAAG [salish99_ex2_r3_030] (puzzle: Exclusion 2) : apparent KD of MS2 coat protein at minimum 200 nM?
// result false (0)

----------
Give measured apparent KD of MS2 coat protein for each item. Keep answers brief.
Tested on: MS2 coat protein
test_description: apparent KD of MS2 coat protein; designed switch direction (-1 OFF switch, 1 ON switch): -1; higher = weaker reporter binding
experimental_setup: input ligand: microRNA oligo, concentration not stated
// note: answer is a bare numeric in nM

response.value for ACGAUGACCGAAAAGUGUAAACUGACAUGAGGAUCACCCAUGUAGGAUAUGGCUACGAAAAGUAGUCAGAAGGGCAUGUCAUCA [Omei Exc(NG) 3 Av9] (Eterna round: R96, puzzle: Exclusion NG 3) (field: apparent KD of MS2 coat protein) = 16.4

The value of apparent KD of MS2 coat protein measured for the sequence AUCCGACAUGAGGAUCACCCAUGUCAGGAUAUGGACUGACAUCGAAAGGAUGGAAGAACCAGAAGGGACUGGGC [Betiqu] (Eterna round: R96, puzzle: Exclusion 1) turned out to be 17.1

Consider GGAUUCCAGUGAGGAUAUCCAAAUAAAAGCCAUGGAGAAGGCACAUGAGGAUCACCCAUGUAGGGCAAUAGCAGCGACCGCUGC [Usxeer] (Eterna round: R96, puzzle: Exclusion NG 1) . Its measured apparent KD of MS2 coat protein is 20.7

Reported apparent KD of MS2 coat protein of ACAUGAGGAUCACCCAUGUAAACAUAAUGGCUCAUGUAGAGUCAGGAUAUGCGUGGCGAACAAACGCAGAAGGGACAAGACUGG [Deportation 26 - Jieux - Exclusion NG 3] (Eterna round: R96, puzzle: Exclusion NG 3) : 30.8

Entry UUAAAUCAUGUAGGAUAUGCGUGGCGAAGCUAUGCAGAAGGACAUGAGGAUCACCCAUGUUCAUCCGUCUGCGUACAGAUGGAA [JL Eng1 1.08 mod 1] (Eterna round: R96, puzzle: Exclusion NG 1) , apparent KD of MS2 coat protein reported as 21.6

Lab note: UACAUGAGGAUCACCCAUGUUUUGUCGUGUAUGGUAUUUAUCUAGGAUAUCAAUUUAUUUAGUUAUGAGAAGGAGAAUAUUAAU [JMF's solution 22] (Eterna round: R96, puzzle: Exclusion NG 3) gave apparent KD of MS2 coat protein of 27.7

Documented apparent KD of MS2 coat protein of AGGUGCUUCUGGAGACAUGAGGAUCACCCAUGUUGAGUUAGCGAGGAUAUCGGUAACGCAUGUGAUGAGAAGGCGCAAACCAAU [Ex NG3 #47] (Eterna round: R96, puzzle: Exclusion NG 3) : 30.7

Sure, the documented apparent KD of MS2 coat protein for UAUAUAUAGUAAGGAUAUGUAUUUAUUUUAGAAACAGAAGGUACUGACAUGAGGAUCACCCAUGUUUUAGUGUGGGCAUGUAGA [JMF's solution 23] (Eterna round: R96, puzzle: Exclusion NG 1) is 62

Notebook: GGAUCGAGUGUGAGGAUAUGCUGGUCCUAAGAUCAGCAGAAGGCACAUGAGGAUCACCCAUGUGAAAACGGUCC [Mat - Exclusion 4 - JL Mod - D71] (Eterna round: R96, puzzle: Brourd's mod of Exclusion 4) , apparent KD of MS2 coat protein read as 24.2

Data point: AAUGAUUGAUGAGGAUAUUGUGGUGAAACACGACGAGAAGGCAUAUGUCACAUGAGGAUCACCCAUGUGAGCCUUGUGGAUAUA [Ex NG1 #66] (Eterna round: R96, puzzle: Exclusion NG 1) ; apparent KD of MS2 coat protein = 45.9

apparent KD of MS2 coat protein measured on CACCUGAAGAGAGGAUAUCAUACAUGAGGAUCACCCAUGUAAUAAAUGAGAAUUUCGAAUGUAAUUGAGAAGGCUCAAUAAGGC [Ostricism 95 - Jieux - Exclusion NG 2] (Eterna round: R96, puzzle: Exclusion NG 2) = 33

In plain terms, CUGAACCCGGUAGGAUAUAUUGUGGGCAGGCGUGGAACGACAUGAGGAUCACCCAUGUAAUUGAGGUAGAAGGGCCGAGAGAUU [Excl-NG2-LRO14] (Eterna round: R96, puzzle: Exclusion NG 2) has a documented apparent KD of MS2 coat protein of 25.9
